Molecular target: T1, human LTBP1-proTGFβ1 complex (human, UniProt Q14766 347-1721; P01137 30-390)
T1 construct: Large latent complex: one presenting molecule disulfide-linked to a proTGFβ1 dimer; also called Hu LTBP1-proTGFβ1; huLTBP1 proTGFβ1
T1 sequence (Q14766 347-1721 limits assumed, chain 1 of 2): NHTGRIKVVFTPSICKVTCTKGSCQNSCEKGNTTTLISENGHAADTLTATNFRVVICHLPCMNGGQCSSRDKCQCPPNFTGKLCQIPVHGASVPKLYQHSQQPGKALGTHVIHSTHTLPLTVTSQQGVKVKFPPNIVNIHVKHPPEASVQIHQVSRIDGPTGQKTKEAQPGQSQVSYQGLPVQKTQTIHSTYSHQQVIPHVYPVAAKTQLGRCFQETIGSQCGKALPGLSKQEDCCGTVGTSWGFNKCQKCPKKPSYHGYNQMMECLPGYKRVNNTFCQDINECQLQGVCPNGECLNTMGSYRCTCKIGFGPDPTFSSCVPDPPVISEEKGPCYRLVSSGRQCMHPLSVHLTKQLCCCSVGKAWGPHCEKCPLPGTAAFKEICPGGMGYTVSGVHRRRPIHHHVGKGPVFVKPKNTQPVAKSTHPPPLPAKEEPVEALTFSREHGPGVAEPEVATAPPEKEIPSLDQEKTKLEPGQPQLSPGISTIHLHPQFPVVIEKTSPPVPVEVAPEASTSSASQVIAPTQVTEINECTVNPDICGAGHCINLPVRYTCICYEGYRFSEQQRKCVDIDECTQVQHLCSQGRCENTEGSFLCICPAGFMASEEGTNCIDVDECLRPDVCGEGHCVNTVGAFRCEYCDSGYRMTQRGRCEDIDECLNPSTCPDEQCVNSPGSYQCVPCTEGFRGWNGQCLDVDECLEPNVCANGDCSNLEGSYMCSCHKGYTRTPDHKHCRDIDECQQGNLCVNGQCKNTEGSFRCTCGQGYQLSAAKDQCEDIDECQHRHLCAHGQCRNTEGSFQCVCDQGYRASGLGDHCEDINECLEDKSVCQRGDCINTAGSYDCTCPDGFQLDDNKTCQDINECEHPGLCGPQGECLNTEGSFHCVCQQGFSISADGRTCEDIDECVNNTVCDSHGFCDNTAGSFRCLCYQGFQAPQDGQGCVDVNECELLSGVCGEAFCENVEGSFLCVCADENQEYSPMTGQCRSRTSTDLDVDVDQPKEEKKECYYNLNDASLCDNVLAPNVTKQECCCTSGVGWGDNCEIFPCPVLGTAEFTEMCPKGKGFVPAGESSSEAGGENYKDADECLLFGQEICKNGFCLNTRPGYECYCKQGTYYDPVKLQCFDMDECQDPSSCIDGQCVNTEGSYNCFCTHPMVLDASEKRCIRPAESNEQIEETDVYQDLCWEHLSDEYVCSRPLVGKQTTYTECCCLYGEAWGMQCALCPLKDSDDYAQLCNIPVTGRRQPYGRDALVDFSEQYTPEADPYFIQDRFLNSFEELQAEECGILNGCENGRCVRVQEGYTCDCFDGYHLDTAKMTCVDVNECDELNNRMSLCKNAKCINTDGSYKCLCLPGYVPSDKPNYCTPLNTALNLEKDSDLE
T1 sequence (P01137 30-390 limits assumed, chain 2 of 2): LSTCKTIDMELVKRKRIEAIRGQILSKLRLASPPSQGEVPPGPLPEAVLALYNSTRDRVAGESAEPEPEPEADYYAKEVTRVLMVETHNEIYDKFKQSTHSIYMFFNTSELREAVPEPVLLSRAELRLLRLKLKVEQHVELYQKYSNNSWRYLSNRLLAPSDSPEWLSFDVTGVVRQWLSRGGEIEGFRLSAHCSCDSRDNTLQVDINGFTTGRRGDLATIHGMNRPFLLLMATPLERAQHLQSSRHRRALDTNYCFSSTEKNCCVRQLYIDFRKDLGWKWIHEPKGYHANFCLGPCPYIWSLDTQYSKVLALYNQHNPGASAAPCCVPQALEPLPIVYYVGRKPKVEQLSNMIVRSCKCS
Assay: SPR Biacore 8K, Fab over captured antigen
property: kon (M⁻¹ s⁻¹)
All answers are understood in M⁻¹ s⁻¹, so give the number only.

# binder, property, endpoint unit, recorded measurement
rows = [
    ("SR-AB51-HuFab (Fab, V domains shown, Human Fab; also called SR-AB51 Fab) VH: QVQLVESGGGVVQPGRSLRLSCAASGFTFRSYVMHWVRQAPGKGLEWVAVISHEGSGKYYADSVKGRFTISRDNSKNTLYLQMNSLRAEDTAVYYCARPRIAARRGGFGTWGQGTLVTVSS VL: NFMLTQPHSVSESPGKTVTISCTRSSGNIDYNYVQWYQQRPGSSPTTVIYEDNVRPSGVPDRFSGSIDSSSNSASLTISGLKTEDEADYYCQSYDYDNQAVVFGGGTKLTVL", "kon", "M⁻¹ s⁻¹", "2.55e+06"),
    ("SR-AB55-HuFab (Fab, V domains shown, Human Fab; also called SR-AB55 Fab) VH: QVQLVESGGGVVQPGRSLRLSCAASGFTFRSYVMHWVRQAPGKGLEWVAVISHEGSGKYYADSVKGRFTISRDNSKNTLYLQMNSLRAEDTAVYYCALPRIAARRGGFGSWGQGTLVTVSS VL: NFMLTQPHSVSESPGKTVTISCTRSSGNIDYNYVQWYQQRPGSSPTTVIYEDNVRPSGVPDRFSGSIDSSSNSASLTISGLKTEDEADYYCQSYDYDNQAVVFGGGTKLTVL", "kon", "M⁻¹ s⁻¹", 862000),
    ("SR-AB58-HuFab (Fab, V domains shown, Human Fab; also called SR-AB58 Fab) VH: QVQLVESGGGVVQPGRSLRLSCAASGFTFRSYVMHWVRQAPGKGLEWVAVISHEGSGKYYADSVKGRFTISRDNSKNTLYLQMNSLRAEDTAVYYCALPRIAARRGGFGTWGQGTLVTVSS VL: NFMLTQPHSVSESPGKTVTISCTRSSGNIDYNYVQWYQQRPGSSPTTVIYEDNVRPSGVPDRFSGSIDSSSNSASLTISGLKTEDEADYYCQSYDSDNQRVVFGGGTKLTVL", "kon", "M⁻¹ s⁻¹", "3.11e+06"),
]

Query: Quick one: kon of SR-AB46-HuFab (Fab, V domains shown, Human Fab; also called SR-AB46 Fab) VH: QVQLVESGGGVVQPGRSLRLSCAASGFTFRSYVMHWVRQAPGKGLEWVAVISHEGSGKYYADSVKGRFTISRDNSKNTLYLQMNSLRAEDTAVYYCARPRIAARRGGFGSWGQGTLVTVSS VL: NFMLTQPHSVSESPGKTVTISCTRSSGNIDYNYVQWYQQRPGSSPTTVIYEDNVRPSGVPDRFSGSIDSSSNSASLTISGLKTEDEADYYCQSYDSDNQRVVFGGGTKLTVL ?
Response: 2.47e+06

Query: I have this binder here, SR-AB47-HuFab (Fab, V domains shown, Human Fab; also called SR-AB47 Fab) VH: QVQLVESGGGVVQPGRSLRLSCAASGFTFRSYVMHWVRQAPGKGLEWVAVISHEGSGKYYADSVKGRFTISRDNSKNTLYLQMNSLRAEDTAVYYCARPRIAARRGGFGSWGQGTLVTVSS VL: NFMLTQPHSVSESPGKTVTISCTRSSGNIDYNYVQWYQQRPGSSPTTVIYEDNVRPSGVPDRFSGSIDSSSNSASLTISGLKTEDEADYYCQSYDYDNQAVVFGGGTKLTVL , and I need its recorded kon.
Response: 1.84e+06
